Data origin, for the record: PubChem BioAssay (NCATS)

assay-remarks: qHTS drug screen for cell cycle checkpoint inhibitors in PARPi-resistant BRCA-mutant ovarian cancer cell lines. (AID 1963452)
test-conditions: PEO1/OlaR viability, CellTiter-Glo luminescence, 96 h; active compounds read low
Mark each entry condition met if its Z-AUC sits below -0.3, and condition not met for all others.

Answered examples (3):
INSERT INTO measurements (smiles_text, label_value) VALUES
  ('CCN1CCN(C(=O)N[C@@H](C(=O)N[C@@H]2C(=O)N3C(C(=O)O)=C(CSc4nnnn4C)CS[C@H]23)c2ccc(O)cc2)C(=O)C1=O', 'condition not met'),
  ('CCOC(=O)[C@H](CCc1ccccc1)N[C@@H](C)C(=O)N1[C@H](C(=O)O)C[C@@H]2CCC[C@@H]21', 'condition met'),
  ('C#C[C@]1(O)CC[C@H]2[C@@H]3[C@H](C)CC4=C(CCC(=O)C4)[C@H]3CC[C@@]21C', 'condition met');

(Q) Would you kindly verify if Z-AUC of CC(=O)O[C@H]1C[C@@H]2CC[C@@H]3[C@H](CC[C@@]4(C)[C@H]3C[C@H]([N+]3(C)CCCCC3)[C@@H]4OC(C)=O)[C@@]2(C)C[C@@H]1N1CCCCC1 is strictly less than -0.3?
(A) condition not met

(Q) State whether -0.3 exceeds Z-AUC recorded for CCCCCN=C(N)N/N=C/c1c[nH]c2ccc(OC)cc12 .
(A) condition met

(Q) Report whether reported Z-AUC is lower than -0.3 (strictly) for C[C@@H](O)[C@H]1C(=O)N2C(C(=O)O)=C(S[C@@H]3CN[C@H](CNS(N)(=O)=O)C3)[C@H](C)[C@H]12
(A) condition not met

(Q) Just wondering, is Z-AUC of CC(=O)O[C@]1(C(C)=O)CC[C@H]2[C@@H]3C=C(C)C4=CC(=O)CC[C@]4(C)[C@H]3CC[C@@]21C below -0.3?
(A) condition not met

(Q) Does C#C[C@]1(O)CC[C@H]2[C@@H]3CCC4=CC(=O)CC[C@@H]4[C@H]3CC[C@@]21CC have Z-AUC strictly under -0.3?
(A) condition met

----------
System: CP250
assay-remarks: qHTS profiling for inhibitors of Plasmodium falciparum proliferation (AID 504749);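 note: 0% = DMSO vehicle and full inhibition = artemisinin control; nearly all actives have a fitted effect of over 60% in size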
test-conditions: P. falciparum in erythrocytes, SYBR Green DNA, 72 h; series mostly up to 28.7 µM
Inconclusive results are not listed. Activity calls are given as the source filed them. Calls follow the shape of the dose curve; as a rule, active = well fitted inhibition curve with a large enough effect; inconclusive = small, poorly fitted or top-dose-only effect; inactive = flat fitted curve, though single readings scatter.
Permitted responses: true (1) = active, false (0) = inactive

Examples with answers:
INSERT INTO results (molecule, label_value) VALUES
  ('CNCCc1ccccn1', 'false (0)'),
  ('CCOc1ccc(NC(C)=O)cc1', 'false (0)');

(Q) What did this assay record as the result for COc1cc(C(=S)N2CCOCC2)ccc1O ?
(A) false (0)

(Q) Please let me know the test result on file for CN(C)C(=O)Nc1ccc(Cl)c(Cl)c1 .
(A) false (0)

(Q) Recorded test outcome, item NC(=S)N/N=C/c1cccnc1
(A) false (0)

(Q) What call does the record list for CCC(C(=O)OCCOCCN(CC)CC)c1ccccc1 (stereo not given) ?
(A) false (0)

(Q) For this molecule, state the assay outcome: CC(C)Nc1cccnc1N1CCN(C(=O)c2cc3cc(NS(C)(=O)=O)ccc3[nH]2)CC1
(A) false (0)

(Q) What was the test verdict on C=C[C@@]1(C)CC(=O)[C@]2(O)[C@@]3(C)[C@@H](O)CCC(C)(C)[C@@H]3[C@H](O)[C@H](OC(C)=O)[C@@]2(C)O1 ?
(A) false (0)

(Q) Given CN1CCN(C2=Nc3cc(F)ccc3Cc3ccccc32)CC1 , state the outcome it received in this test.
(A) false (0)

(Q) Field: outcome | Entry: C#C[C@]1(O)CC[C@H]2[C@@H]3CCC4=Cc5oncc5C[C@]4(C)[C@H]3CC[C@@]21C
(A) false (0)
